I'd be grateful if you could share measured CC50 at 48 h for these entries.
- TEST METHOD NOTES: Cytotoxicity against BALB/c mouse splenocytes after 48 hrs by CCK-8 assay
- Format: cell-based, Splenocyte
The reply should contain only the number, in µM.

Value lookup for CC50 at 48 h; key = COc1ccccc1-c1nc(Cc2c[nH]c3ccccc23)no1
42.2

Entry COc1ccc(-c2nc(Cc3c[nH]c4ccccc34)no2)c(OC)c1 has what CC50 at 48 h?
9.3

# input molecule: CCc1ccc(-c2noc(Cc3c[nH]c4ccccc34)n2)cc1 ; wanted: its CC50 at 48 h
24.4

---

- TEST METHOD NOTES: Cytotoxicity against BALB/c mouse splenocytes after 48 hrs by CCK-8 assay
- Format: cell-based, Splenocyte
For each entry below, report its CC50 at 48 h value.
Give just the numeric value; µM need not be written.

What value of CC50 at 48 h has been recorded for this entry: COc1cccc(-c2nc(Cc3c[nH]c4ccccc34)no2)c1
18.4

Suppose we examine the compound CCCCc1ccc(-c2nc(-c3cc(OC)c(OC)c(OC)c3)no2)cc1 ; what CC50 at 48 h value has been reported?
21.2

Fill in the blank: the reported CC50 at 48 h of COc1cc(C(=O)O/N=C(\N)Cc2c[nH]c3ccccc23)cc(OC)c1OC is ____.
10.1

---

- TEST METHOD NOTES: Cytotoxicity against BALB/c mouse splenocytes after 48 hrs by CCK-8 assay
- Type: cell-based, Splenocyte
What CC50 at 48 h was measured for each of the following?

Requested read-out: CC50 at 48 h. Entry: Fc1ccccc1-c1nc(Cc2c[nH]c3ccccc23)no1
> 50 µM

# query: CC50 at 48 h of entry COc1cc(-c2noc(-c3ccc(N)cc3)n2)cc(OC)c1OC
> 50 µM

Which measured CC50 at 48 h value corresponds to c1ccc(-c2noc(Cc3c[nH]c4ccccc34)n2)cc1 ?
> 50 µM

---

- TEST METHOD NOTES: Cytotoxicity against BALB/c mouse splenocytes after 48 hrs by CCK-8 assay
- Format: cell-based, Splenocyte
METRIC: CC50 at 48 h

Value lookup for CC50 at 48 h; key = COc1ccc(-c2nc(Cc3c[nH]c4ccccc34)no2)cc1
> 50 µM

Which CC50 at 48 h reading was recorded for the molecule COc1cc(OC)cc(-c2nc(Cc3c[nH]c4ccccc34)no2)c1 ?
> 50 µM

Item under review: COc1cc(-c2noc(Cc3c[nH]c4ccccc34)n2)cc(OC)c1OC . Reported CC50 at 48 h?
> 50 µM
